test system: M14 melanoma; assay: NCI-60 one-dose screen, 48 h (100 = growth as untreated, 0 = no growth, -100 = all killed); conditions: 10 µM unless noted
About 83,000 compounds went through this panel and 20% of them were active in at least one assay; those are over-represented in the sample as a whole.
Item-by-item account of growth
Provide only the numeric value, understood in %.

Solved cases below.
INSERT INTO measurements (compound, measurement) VALUES
  ('C=CC1(C)C(O[Si](C)(C)C(C)(C)C)CC2C3OC(=O)NC31c1cccc3c1[C@H](C(=O)N3C)C2(C)C (some centres undefined)', 48.5),
  ('CCCCCCCC/C=C\CCCCCCCCOc1ccccc1CC(=O)NCC[N+]1(C)CCCCC1', 65.5),
  ('S=c1ssnc1-c1cccs1', 94.2);

Let's switch to this compound now.
Input line: Answer with the recorded growth of COC(=O)/C(CCC=C(C)C)=C1\[C@@H](OC(C)=O)C[C@@]2(C)[C@H]1CC(=O)[C@H]1[C@@]3(C)CCC(N4CCCC4)[C@@H](C)[C@@H]3CC[C@@]12C (some centres undefined) only.
Output line: 93.1

---

tested on: SF-295 CNS; experiment: NCI-60 one-dose screen, 48 h; conditions: 10 µM unless noted
This is part of a sample that, as a whole, favours compounds with a hit. Of some 83,000 tested, about 20% had one in any assay. Active and inactive are the calls of the source. The calls were made as follows: active = growth percent below 10; inactive = the rest.
Please reply with one of these outcomes: Yes for active, No for inactive

Use these answered entries as a reference point.
INSERT INTO measurements (molecule, class_assignment) VALUES
  ('COc1cc(OC)cc(C2C(C#N)=C(N)Oc3c2ccc2ccc(O)cc32)c1 (stereo not drawn)', 'No'),
  ('O=C1C(Cl)=C(NCCN2CCOCC2)C(=O)c2ncccc21', 'Yes'),
  ('CC(C)c1ccc(-n2c(=S)[nH]c3sc4c(c3c2=O)CCC(=O)C4)cc1', 'No'),
  ('COC(=O)C1=C(C(=O)Nc2cccnc2)C2OC1(C(Cc1ccccc1)Oc1ccccc1)C1OC21 (stereo not drawn)', 'No'),
  ('CCOC(=O)c1c(NC(=O)CSc2n[nH]c3nc4ccccc4n23)sc(CC)c1C', 'No');

Input line: Name the outcome recorded for C[N+](C)(C/C=C/c1ccccc1)Cc1ccccc1 in the assay.
Output line: No

Input line: Name the outcome recorded for COc1ccc(C(C)=O)cc1S(N)(=O)=O in the assay.
Output line: No

Input line: Name the outcome recorded for COc1ccc(C2CC(c3ccc(Nc4nc(Nc5ccc(F)cc5)nc(Nc5ccc(F)cc5)n4)cc3)=NN2C(C)=O)cc1 (stereo not drawn) in the assay.
Output line: No

---

Item-by-item account of growth
tested on: MOLT-4 leukemia; assay: NCI-60 one-dose screen, 48 h (100 = growth as untreated, 0 = no growth, -100 = all killed); conditions: 10 µM unless noted
This is part of a sample that, as a whole, favours compounds with a hit. Of some 83,000 tested, about 20% had one in any assay.
Provide only the numeric value, understood in %.

INSERT INTO assay_data (compound, measured_target, unit_string, measurement) VALUES
  ('COc1cc2c3c(n(CCCCNCCCn4c5c(c6cc(OC)c(OC)cc6c4=O)C(=O)c4cc6c(cc4-5)OCO6)c(=O)c2cc1OC)-c1cc2c(cc1C3=O)OCO2', 'MOLT-4 leukemia', '%', 96.5),
  ('COc1cc2ncnc(Nc3ccc(F)c(Cl)c3)c2cc1OCC(=O)N1CCN(c2ccc(F)cc2)CC1', 'MOLT-4 leukemia', '%', 85.8),
  ('CN1CCN(Cc2ccc(NC(=O)c3cncc(C#Cc4cnn5ccccc45)c3)cc2C(F)(F)F)CC1', 'MOLT-4 leukemia', '%', 1.84),
  ('CC(C)CCC[C@@H](C)C1CCC2C3CCC4=C/C(=N/OCCN(C)C)CC[C@]4(C)C3CC[C@@]21C (some centres undefined)', 'MOLT-4 leukemia', '%', 49.2),
  ('Cc1cc2nc3c4ccccc4n(CCN(C)C)c3nc2cc1C', 'MOLT-4 leukemia', '%', 4.73);

Input line: // fetch growth; item: O=C1c2cccnc2C(=O)c2c1c(C(=O)OCCCN1CCCCC1)c1ccccn21 ; system: MOLT-4 leukemia
Output line: -7.64

Input line: // fetch growth; item: CCCCCCCC/C=C\CCCCCCCCOc1ccc(CC(=O)NCC[N+](C)(C)C)cc1 ; system: MOLT-4 leukemia
Output line: 75.1

Input line: // fetch growth; item: Oc1c(I)cc(-c2nc3ccccc3s2)cc1CN(Cc1ccccn1)Cc1ccccn1 ; system: MOLT-4 leukemia
Output line: 0.129

Input line: // fetch growth; item: C=CC1(C)C(O[Si](C)(C)C(C)(C)C)CC2C3OC(=O)NC31c1cccc3c1[C@H](C(=O)N3C)C2(C)C (some centres undefined) ; system: MOLT-4 leukemia
Output line: 26

---

System: NCI-H522 lung
Assay: NCI-60 one-dose screen, 48 h (100 = growth as untreated, 0 = no growth, -100 = all killed)
Details: 10 µM unless noted
Procedure: Growth inhibition of the NCI-H522 human Non-Small Cell Lung tumor cell line is measured as a screen for anti-cancer activity. Cells are grown in 96 well plates and exposed to the test compound for 48 hours. Compounds are tested at a single concentration, which is 10^-5 M for most compounds. The reported endpoint is percent growth (GI% or GIPRCNT), where numbers from 0 - 100% represent growth inhibition, and numbers from -100% - 0 represent cell death. […]
This is part of a sample that, as a whole, favours compounds with a hit. Of some 83,000 tested, about 20% had one in any assay.
quantity name: growth (%)
Provide only the numeric value, understood in %.

Solved cases below.
INSERT INTO assay_data (compound, quantity_name, unit_string, measurement) VALUES
  ('CCN(CC)CCN(CCN(CC)CC)c1ccccc1', 'growth', '%', 79),
  ('N#C/C(=C\c1ccc(-c2ccc(Cl)cc2)o1)c1ccc(Cl)cc1', 'growth', '%', 81);

Input line: Answer with the recorded growth of O=C(O)c1cn(C2CC2)c2cc(N3CCN(C(=O)N/N=C/c4ccccc4)CC3)c(F)cc2c1=O only.
Output line: 78

---

system: SF-268 CNS; assay: NCI-60 one-dose screen, 48 h; details: 10 µM unless noted
About 83,000 compounds went through this panel and 20% of them were active in at least one assay; those are over-represented in the sample as a whole. Calls of active or inactive are those of the source. How the source made its calls: active means growth percent below 10; inactive means the rest.
Please reply with one of these outcomes: active, inactive

INSERT INTO assay_data (molecule, class_assignment) VALUES
  ('O=C(O)CCCn1c(SCc2c(Cl)cccc2Cl)nc2ccsc2c1=O', 'inactive'),
  ('C/C(C=O)=C\c1ccc2c(c1)OCO2', 'inactive'),
  ('Clc1ccc(-c2nc(-c3c[nH]c4ncccc34)cs2)cc1', 'inactive');

Input line: Name the outcome recorded for Nc1n[nH]c2ccc([C@@H]3Nc4cc5[nH]ncc5cc4[C@H]4C5CCC(C5)[C@@H]34)cc12 (stereo not given in full) in the assay.
Output line: inactive

Input line: Name the outcome recorded for CC(=O)N(Cc1ccccc1)c1nc2ccc(O)c(CN(C)C)c2s1 in the assay.
Output line: inactive

Input line: Name the outcome recorded for N#Cc1c(NC(=O)c2cccs2)[n+]([O-])c2ccc(Cl)cc2[n+]1[O-] in the assay.
Output line: inactive

Input line: Name the outcome recorded for CCN(CC)S(=O)(=O)c1ccc(S(=O)(=O)N2CCC[C@@H](C(=O)N3CCN(C(=O)OC(C)(C)C)CC3)C2)cc1 in the assay.
Output line: inactive

Input line: Name the outcome recorded for O=C1NC(=O)c2c1c1c3ccccc3[nH]c1c1oc3cc(Br)ccc3c21 in the assay.
Output line: inactive

Input line: Name the outcome recorded for CCN(CC)CCN(CCN(CC)CC)c1ccccc1 in the assay.
Output line: inactive

Input line: Name the outcome recorded for CCOC(=O)NN1CC(O)=C(c2nc(-c3ccc(Br)cc3)cs2)C1=N in the assay.
Output line: inactive

Input line: Name the outcome recorded for CC(C)CN1CC(C(=O)Nc2ccc3c(c2)-c2ccccc2C3)CC1=O (stereo not given) in the assay.
Output line: inactive

Input line: Name the outcome recorded for CCc1cccc(Sc2cc(C(=O)N3Cc4ccc(OCCN(C)C)cc4C3)ccc2O)c1 in the assay.
Output line: inactive

Input line: Name the outcome recorded for CCN(CC)CCOc1nc2c3ccc(Cl)cc3nn2c2ccccc12 in the assay.
Output line: inactive

Input line: Name the outcome recorded for O=C1OCC2=C1C(c1cccc(F)c1)c1cc3c(cc1N2CCO)OCO3 (stereo not given) in the assay.
Output line: inactive

Input line: Name the outcome recorded for COc1ccc2c(c1)c(-c1nonc1-c1c[nH]c3ccc(Br)cc13)cn2C in the assay.
Output line: inactive

Input line: Name the outcome recorded for O=C1NC(=C(Cl)Cl)/C(=N/S(=O)(=O)N2CCCCC2)N1 in the assay.
Output line: inactive

Input line: Name the outcome recorded for S=c1[nH]c2cc(Cl)ccc2o1 in the assay.
Output line: inactive

Input line: Name the outcome recorded for Cn1c(O)c(C(/C=C/c2ccccc2)=Nc2ccccc2N)c(=O)n(C)c1=O in the assay.
Output line: inactive

Input line: Name the outcome recorded for O=C1Nc2ccc(F)cc2/C1=N/c1nnc(Sc2ccccc2)s1 in the assay.
Output line: inactive

Input line: Name the outcome recorded for CCOC(=O)Nc1nc2ccc(SCC(C)C)cc2s1 in the assay.
Output line: inactive

Input line: Name the outcome recorded for N=C(N)c1ccc(-c2ccc(-c3ccc(F)cc3)s2)s1 in the assay.
Output line: active
